ASSAYED TARGET: human Nav1.7 (Homo sapiens (Human))
ASSAY NAME: FLIPR or FLIPR TETRA sodium dye assay with KCl and test article pre-incubation
Assay type: cell-based
ASSAY SETUP: sodium dye assay with KCl; recombinant Nav1.7/HEK293 cells; read-out: Nav1.7 IC50 (μM) ± SEM
Each item that follows carries a reported IC50.
State the answer as a number, implicitly in µM.

Solved cases (3 shown):
| COMPOUND STRING | IC50, µM |
| --- | --- |
| CS(=O)(=O)N1CCN(C(=O)c2cccc(-c3ccc(Oc4ccc(F)cc4)cc3)n2)CC1 | 1.31 |
| O=C(O)c1cccc(S(=O)(=O)N2CCN(C(=O)c3cccc(-c4ccc(Oc5ccc(F)cc5)cc4)n3)CC2)c1 | 3.48 |
| CC(C)[C@H](NC(=O)c1cccc(-c2ccc(Oc3ccc(F)cc3)cc2)n1)C(N)=O | 0.61 |

Here is another compound to look at.
Q: Quick one: IC50 for NC(=O)[C@H](Cc1cccnc1)NC(=O)c1cccc(-c2ccc(Oc3ccc(F)cc3)cc2)n1 ?
A: 0.21

----------
ASSAYED TARGET: human Nav1.7 (Homo sapiens (Human), UniProt Q15858)
Sequence (Q15858 other isoform, or with tags, fused parts or gaps): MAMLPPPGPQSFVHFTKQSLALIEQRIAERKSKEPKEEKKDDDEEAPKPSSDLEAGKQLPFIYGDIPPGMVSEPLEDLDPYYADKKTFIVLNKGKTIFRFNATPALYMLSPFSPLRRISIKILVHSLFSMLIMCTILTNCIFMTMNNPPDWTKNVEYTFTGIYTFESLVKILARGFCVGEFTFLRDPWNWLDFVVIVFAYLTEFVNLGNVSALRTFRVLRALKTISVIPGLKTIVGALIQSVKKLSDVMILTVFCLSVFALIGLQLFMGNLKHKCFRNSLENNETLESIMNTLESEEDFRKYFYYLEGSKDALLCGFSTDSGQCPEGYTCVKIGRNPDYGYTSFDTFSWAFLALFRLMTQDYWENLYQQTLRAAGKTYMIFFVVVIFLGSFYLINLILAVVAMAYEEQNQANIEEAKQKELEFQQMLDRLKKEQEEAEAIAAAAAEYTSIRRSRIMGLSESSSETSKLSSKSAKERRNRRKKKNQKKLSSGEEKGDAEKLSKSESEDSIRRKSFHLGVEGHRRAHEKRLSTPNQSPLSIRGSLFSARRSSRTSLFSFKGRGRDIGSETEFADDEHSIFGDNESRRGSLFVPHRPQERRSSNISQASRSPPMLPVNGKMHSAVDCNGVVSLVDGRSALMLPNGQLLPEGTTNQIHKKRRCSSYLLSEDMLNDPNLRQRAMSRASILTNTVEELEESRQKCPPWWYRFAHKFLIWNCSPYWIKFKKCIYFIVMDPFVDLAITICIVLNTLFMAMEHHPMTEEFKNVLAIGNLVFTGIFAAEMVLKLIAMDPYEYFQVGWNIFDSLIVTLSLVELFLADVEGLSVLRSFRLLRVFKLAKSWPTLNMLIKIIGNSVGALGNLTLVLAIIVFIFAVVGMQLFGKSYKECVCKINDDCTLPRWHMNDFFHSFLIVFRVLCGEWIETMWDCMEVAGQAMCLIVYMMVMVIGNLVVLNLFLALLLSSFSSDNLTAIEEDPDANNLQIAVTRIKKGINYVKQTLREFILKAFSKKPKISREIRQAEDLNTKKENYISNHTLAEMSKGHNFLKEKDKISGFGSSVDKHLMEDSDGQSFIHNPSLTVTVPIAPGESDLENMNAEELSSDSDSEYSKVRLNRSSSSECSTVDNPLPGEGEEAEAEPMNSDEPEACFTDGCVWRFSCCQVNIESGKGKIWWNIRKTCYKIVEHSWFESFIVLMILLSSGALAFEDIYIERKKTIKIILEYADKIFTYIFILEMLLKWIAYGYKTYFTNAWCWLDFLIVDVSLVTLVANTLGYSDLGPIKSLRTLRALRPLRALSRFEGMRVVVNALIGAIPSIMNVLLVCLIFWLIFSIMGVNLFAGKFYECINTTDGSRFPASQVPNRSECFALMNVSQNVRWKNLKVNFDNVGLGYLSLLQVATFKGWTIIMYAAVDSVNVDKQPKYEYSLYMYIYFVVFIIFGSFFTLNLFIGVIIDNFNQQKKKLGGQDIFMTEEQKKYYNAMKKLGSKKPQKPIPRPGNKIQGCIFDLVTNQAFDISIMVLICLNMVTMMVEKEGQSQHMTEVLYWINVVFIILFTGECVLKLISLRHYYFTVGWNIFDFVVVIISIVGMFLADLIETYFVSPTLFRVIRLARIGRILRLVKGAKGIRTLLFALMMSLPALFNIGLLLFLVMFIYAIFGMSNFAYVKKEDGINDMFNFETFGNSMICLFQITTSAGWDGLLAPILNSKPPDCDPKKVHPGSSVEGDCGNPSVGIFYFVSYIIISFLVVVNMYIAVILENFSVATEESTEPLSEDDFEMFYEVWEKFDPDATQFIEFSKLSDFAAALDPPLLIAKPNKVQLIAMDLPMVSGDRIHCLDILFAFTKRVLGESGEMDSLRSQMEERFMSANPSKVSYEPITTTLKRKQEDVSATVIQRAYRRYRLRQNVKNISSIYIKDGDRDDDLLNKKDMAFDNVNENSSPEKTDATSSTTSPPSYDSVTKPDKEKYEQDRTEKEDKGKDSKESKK
ASSAY NAME: FLIPR or FLIPR TETRA sodium dye assay with KCl and test article pre-incubation
Type: cell-based
ASSAY SETUP: sodium dye assay with KCl; recombinant Nav1.7/HEK293 cells; read-out: Nav1.7 IC50 (μM) ± SEM
READOUT NAME: IC50 (µM)
State the answer as a number, implicitly in µM.

Q: Quick one: IC50 for N#Cc1cccc(S(=O)(=O)N2CCN(C(=O)c3cccc(Oc4ccc(F)cc4)n3)CC2)c1 ?
A: 5.94

Q: Quick one: IC50 for Cc1noc(C)c1S(=O)(=O)N1CCN(C(=O)c2cccc(-c3ccc(Oc4ccc(F)cc4)cc3)n2)CC1 ?
A: 0.22

Q: Quick one: IC50 for CC(C)C[C@H](NC(=O)c1cc([C@@H](O)CO)cc(-c2ccc(Oc3ccc(F)cc3)cc2)n1)C(N)=O ?
A: 1.56

Q: Quick one: IC50 for NC(=O)[C@@H]1CCCN1C(=O)c1cccc(-c2ccc(Oc3ccc(F)cc3)cc2)n1 ?
A: 2.12

Q: Quick one: IC50 for NC(=O)C[C@H](NC(=O)c1cccc(-c2ccc(Oc3ccc(F)cc3)cc2)n1)C(N)=O ?
A: 0.75

----------
ASSAYED TARGET: human Nav1.7 (Homo sapiens (Human))
ASSAY NAME: FLIPR or FLIPR TETRA sodium dye assay with KCl and test article pre-incubation
Assay type: cell-based
ASSAY SETUP: sodium dye assay with KCl; recombinant Nav1.7/HEK293 cells; read-out: Nav1.7 IC50 (μM) ± SEM
READOUT NAME: IC50

Solved cases (2 shown):
| COMPOUND | VALUE OBSERVED |
| --- | --- |
| O=C(c1cccc(-c2ccc(Oc3ccc(F)cc3)cc2)n1)N1CCN(S(=O)(=O)c2cccnc2)CC1 [Compound 15] | 0.42 µM |
| NC(=O)[C@H](Cc1ccccc1)NC(=O)c1cccc(-c2ccc(Oc3ccc(F)cc3)cc2)n1 [Compound 41] | > 20 µM |

Here is another compound to look at.
Q: Quick one: IC50 for NC(=O)C[C@H](NC(=O)c1cc([C@H](O)CO)cc(-c2ccc(Oc3ccc(F)cc3)cc2)n1)C(N)=O [Compound 64] ?
A: > 20 µM

----------
ASSAYED TARGET: human Nav1.7 (Homo sapiens (Human), UniProt Q15858)
ASSAY NAME: FLIPR or FLIPR TETRA sodium dye assay with KCl and test article pre-incubation
Format: cell-based
ASSAY SETUP: sodium dye assay with KCl; recombinant Nav1.7/HEK293 cells; read-out: Nav1.7 IC50 (μM) ± SEM
Labelling: IC50 reported below 1 µM becomes 1; at or above becomes -1.

Q: Hello, I'm reviewing records and need to know if IC50 of NC(=O)[C@@H](Cc1c[nH]c2ccccc12)NC(=O)c1cccc(-c2ccc(Oc3ccc(F)cc3)cc2)n1 [Compound 37] is below 1 µM. Could you check?
A: -1

Q: Hello, I'm reviewing records and need to know if IC50 of N#Cc1cccc(S(=O)(=O)N2CCN(C(=O)c3cccc(-c4ccc(F)cc4)n3)CC2)c1 [Compound 56] is below 1 µM. Could you check?
A: -1

Q: Hello, I'm reviewing records and need to know if IC50 of C[C@H](NC(=O)c1cccc(-c2ccc(Oc3ccc(C(F)(F)F)cn3)cc2)n1)C(N)=O [Compound 61] is below 1 µM. Could you check?
A: -1

Q: Hello, I'm reviewing records and need to know if IC50 of NC(=O)C[C@H](NC(=O)c1cc([C@@H](O)CO)cc(-c2ccc(Oc3ccc(F)cc3)cc2)n1)C(N)=O [Compound 66] is below 1 µM. Could you check?
A: -1

Q: Hello, I'm reviewing records and need to know if IC50 of O=C(O)c1ccc(S(=O)(=O)N2CCN(C(=O)c3cccc(-c4ccc(Oc5ccc(F)cc5)cc4)n3)CC2)cc1 [Compound 19] is below 1 µM. Could you check?
A: -1

Q: Hello, I'm reviewing records and need to know if IC50 of O=C(c1cccc(-c2ccc(Oc3ccc(F)cc3)cc2)n1)N1CCN(S(=O)(=O)c2cccc(OC(F)(F)F)c2)CC1 [Compound 16] is below 1 µM. Could you check?
A: 1

Q: Hello, I'm reviewing records and need to know if IC50 of N#Cc1cc(S(=O)(=O)N2CCN(C(=O)c3cccc(-c4ccc(Oc5ccc(F)cc5)cc4)n3)CC2)ccc1F [Compound 59] is below 1 µM. Could you check?
A: 1

----------
ASSAYED TARGET: human Nav1.7 (Homo sapiens (Human), UniProt Q15858)
ASSAY NAME: FLIPR or FLIPR TETRA sodium dye assay with KCl and test article pre-incubation
Type: cell-based
ASSAY SETUP: sodium dye assay with KCl; recombinant Nav1.7/HEK293 cells; read-out: Nav1.7 IC50 (μM) ± SEM
READOUT NAME: IC50 (µM)
State the answer as a number, implicitly in µM.

| MOLECULE | READOUT NAME | UNIT ABBREVIATION | VALUE OBSERVED |
| --- | --- | --- | --- |
| CC(O)[C@H](NC(=O)c1cccc(-c2ccc(Oc3ccc(F)cc3)cc2)n1)C(N)=O (stereo partly drawn) | IC50 | µM | 1.56 |
| NC(=O)[C@@H](CO)NC(=O)c1cccc(-c2ccc(Oc3ccc(F)cc3)cc2)n1 | IC50 | µM | 1.32 |

Q: Quick one: IC50 for N#Cc1cccc(S(=O)(=O)N2CCN(C(=O)c3cccc(-c4ccc(Oc5ccc(F)cc5)cc4)n3)CC2)c1 ?
A: 0.43

Numbers sourced from patent US9120752B2.
